# study_target: human recombinant BACE1 (Homo sapiens (Human), UniProt P56817)
# Sequence (P56817 46-501): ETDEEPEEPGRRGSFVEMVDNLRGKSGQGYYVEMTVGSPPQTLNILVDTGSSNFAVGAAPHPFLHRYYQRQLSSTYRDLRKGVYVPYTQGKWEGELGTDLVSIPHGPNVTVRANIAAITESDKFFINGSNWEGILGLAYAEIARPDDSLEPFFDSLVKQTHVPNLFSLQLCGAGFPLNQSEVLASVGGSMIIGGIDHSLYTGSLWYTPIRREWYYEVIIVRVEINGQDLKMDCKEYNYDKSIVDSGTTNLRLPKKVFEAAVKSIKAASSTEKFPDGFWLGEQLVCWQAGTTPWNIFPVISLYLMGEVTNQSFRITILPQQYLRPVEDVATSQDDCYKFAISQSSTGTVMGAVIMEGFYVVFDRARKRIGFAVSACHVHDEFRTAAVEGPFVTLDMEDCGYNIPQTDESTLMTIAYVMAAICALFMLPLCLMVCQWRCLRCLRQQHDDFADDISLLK
# experimental_details: In vitro enzymatic BACE1 FRET assay
# Assay type: biochemical
# condition_parameters: read-out: IC50 IP (μM) BACE1 enzyme
observation_type: IC50 (µM)

{"structure_smiles": "COC[C@]12C[C@H]1[C@@](C)(c1cc(NC(=O)c3cnc(OCC(F)F)cn3)cc(F)c1F)N=C(N)S2", "study_target": "human recombinant BACE1 (Homo sapiens (Human), UniProt P56817)", "value_unit": "µM", "experimental_result": 0.00169}
{"structure_smiles": "CNC(=O)[C@]12C[C@H]1[C@@](C)(c1cc(NC(=O)c3ccc(Cl)cn3)ccc1F)N=C(N)S2", "study_target": "human recombinant BACE1 (Homo sapiens (Human), UniProt P56817)", "value_unit": "µM", "experimental_result": 0.000276}
{"structure_smiles": "C#C[C@H](C)Oc1cnc2c(Nc3ccc(F)c([C@@]4(CF)N=C(N)S[C@@]5(CF)C[C@H]54)c3)nccc2n1", "study_target": "human recombinant BACE1 (Homo sapiens (Human), UniProt P56817)", "value_unit": "µM", "experimental_result": 0.00107}
{"structure_smiles": "NC1=N[C@](CF)(c2cc(NC(=O)c3ccc(Cl)cn3)ccc2F)[C@@H]2C[C@]2(/C=C/C(=O)O)S1", "study_target": "human recombinant BACE1 (Homo sapiens (Human), UniProt P56817)", "value_unit": "µM", "experimental_result": 0.000176}
